Reported LC50, CL is given for each of the following compounds.
Tested on: Cabbage Looper [Trichoplusia ni (Hubner)]
Test: Cabbage looper insecticidal test
Type: in vivo
Conditions: second-instar larvae, percent in solution; 3-5 days
Procedure: The compounds in Tables 1 and 2 above were tested for insecticidal activity using the following testing procedures. LC50 values, based on the results of these tests and calculated according to dosage-mortality curves, are expressed in Table 3. Cabbage Looper [Trichoplusia ni (Hubner)]: Test compounds were diluted in a 50-50 acetone-water solution. […] Mortality of the larvae was recorded 3-5 days later. […]
Please respond with the number in % and leave the unit unwritten.

compound="CC(C)C(=Nc1ccc(Cl)c(Cl)c1)OCc1cccc(Oc2cccc(F)c2)c1 [Compound 40]" measured_target="Cabbage Looper [Trichoplusia ni (Hubner)]" value_observed=0.0025

Now consider the entry below.
# lookup: CC(C)C(=Nc1ccc(F)cc1)OCc1cccc(Oc2ccc(F)c(F)c2)c1 [Compound 265] on Cabbage Looper [Trichoplusia ni (Hubner)], LC50, CL = 0.00025

----------
system: Cabbage Looper [Trichoplusia ni (Hubner)]; assay: Cabbage looper insecticidal test; type: in vivo; details: second-instar larvae, percent in solution; 3-5 days
Listed next: entries and their corresponding LC50, CL.
API: value field is a number in %; no unit string.

# lookup: CC(C)C(=Nc1ccc2c(c1)OC(F)(F)O2)OCc1ccc(F)c(Oc2ccc(F)cc2)c1 on Cabbage Looper [Trichoplusia ni (Hubner)], LC50, CL = 0.00005

CC(C)C(=Nc1c(F)c(F)c(F)c(F)c1F)OCc1cccc(Oc2ccccc2)c1 tested on Cabbage Looper [Trichoplusia ni (Hubner)] gave LC50, CL: 0.001

----------
test system: Cabbage Looper [Trichoplusia ni (Hubner)]; assay: Cabbage looper insecticidal test; format: in vivo; conditions: second-instar larvae, percent in solution; 3-5 days
reported_endpoint: LC50, CL (%)
Answer with a number only, understood to be in %.

compound="CC(C)C(=Nc1ccc2c(c1)OCO2)OCc1coc(Cc2ccccc2)c1 [Compound 483]" value_observed=0.001
compound="CC(C)C(=Nc1ccc2c(c1)OC(F)(F)O2)OCc1cccc(Oc2ccccc2)c1 [Compound 245]" value_observed=0.0035
compound="CCOc1ccc(N=C(OCc2cccc(Oc3ccccc3)c2)C(C)(C)C)cc1 [Compound 164]" value_observed=0.005
compound="CC(C)C(=Nc1cccc(Cl)c1)OCc1cccc(Oc2ccccc2)c1 [Compound 7]" value_observed=0.006
compound="CC(C)C(=Nc1cccc(C(F)(F)F)c1)OCc1cccc(Oc2ccc(Cl)cc2)n1 [Compound 477]" value_observed=0.0003
compound="CC(C)C(=Nc1ccc2c(c1)OCO2)OCc1cccc(Oc2ccc(C(F)(F)F)cc2)c1 [Compound 246]" value_observed=0.004

Could you now consider this next compound?
// LC50, CL lookup, compound = Cc1ccc(N=C(OCc2cccc(Oc3ccccc3)c2)C(C)C)cc1C [Compound 158] , result: 0.003

----------
tested on: Cabbage Looper [Trichoplusia ni (Hubner)]; test: Cabbage looper insecticidal test; format: in vivo; settings: second-instar larvae, percent in solution; 3-5 days
The entries below are paired with their reported LC50, CL.
# number only, unit % dropped from output

Recorded LC50, CL, per entry:
line_notation=CC(C)C(=Nc1cccc(Cl)c1)OCc1ccc(F)c(Oc2ccc(Cl)cc2)c1 measured_target="Cabbage Looper [Trichoplusia ni (Hubner)]" measurement_units=% value_observed=0.0021
line_notation=CCC(=Nc1ccc(C(C)C)cc1)OCc1cccc(Oc2ccc(F)cc2)c1 measured_target="Cabbage Looper [Trichoplusia ni (Hubner)]" measurement_units=% value_observed=0.0075
line_notation=CC(C)C(=Nc1cccc(Br)c1)OCc1ccc(F)c(Oc2ccccc2)c1 measured_target="Cabbage Looper [Trichoplusia ni (Hubner)]" measurement_units=% value_observed=0.0012

// sample C#CCc1c(F)c(F)c(COC(=Nc2ccc3c(c2)OCO3)C(C)C)c(F)c1F , its LC50, CL was 0.0005

Given item CC(C)C(=Nc1ccc(F)c(Cl)c1)OCc1cccc(Oc2ccc(Cl)cc2)c1 , the value recorded as its LC50, CL is 0.00015

compound CC(C)C(=Nc1ccc(Cl)c(C(F)(F)F)c1)OCc1cccc(Oc2ccccc2)c1 , LC50, CL observed: 0.0006

Form field LC50, CL, entry CC(C)C(=Nc1ccc(C#N)cc1)OCc1ccc(F)c(Oc2ccc(Cl)cc2)c1 : 0.00034

Notebook: CC(C)C(=Nc1ccc(F)c(Cl)c1)OCc1cccc(Oc2ccccc2)n1 , LC50, CL read as 0.001
